Biological target: NAD-dependent protein deacetylase sirtuin-2 (Homo sapiens, UniProt Q8IXJ6)
Sequence (Q8IXJ6 whole entry): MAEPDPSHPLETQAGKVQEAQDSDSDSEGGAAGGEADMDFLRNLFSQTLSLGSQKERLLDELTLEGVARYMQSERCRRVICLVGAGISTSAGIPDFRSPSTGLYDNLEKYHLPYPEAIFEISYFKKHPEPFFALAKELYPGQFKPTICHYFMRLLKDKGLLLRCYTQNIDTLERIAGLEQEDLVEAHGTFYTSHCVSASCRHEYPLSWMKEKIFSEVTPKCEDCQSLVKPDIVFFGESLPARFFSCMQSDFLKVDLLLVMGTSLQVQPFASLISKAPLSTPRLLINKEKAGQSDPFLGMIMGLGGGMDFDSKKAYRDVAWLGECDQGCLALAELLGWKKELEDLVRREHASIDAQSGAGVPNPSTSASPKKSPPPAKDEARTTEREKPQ
property: IC50

# query: IC50 of entry CC(C)(NC(=O)/C=C/c1ccc(O)cc1)C(=O)NCCc1c[nH]c2ccc(F)cc12
80 µM

* * *

Below, each of the molecules is paired with its reported inhibition value.
Target: NAD-dependent protein deacetylase sirtuin-1 (Homo sapiens) (UniProt Q96EB6)
Assay: Inhibition of SIRT1 at 200 uM
Field: numeric (%). Do not append units.

Recorded results for 6 molecules are shown here.
>  <molecule>
C[C@@H](NC(=O)/C=C/c1ccc(O)cc1)C(=O)NCCc1c[nH]c2ccccc12

>  <unit_abbrev>
%

>  <assay_result>
3.2

$$$$
>  <molecule>
CC(C)(NC(=O)/C=C/c1ccc(O)cc1)C(=O)NCCc1c[nH]c2ccccc12

>  <unit_abbrev>
%

>  <assay_result>
6.6

$$$$
>  <molecule>
CC(C)(NC(=O)/C=C/c1ccc(O)cc1)C(=O)NCCc1c[nH]c2ccc(F)cc12

>  <unit_abbrev>
%

>  <assay_result>
7

$$$$
>  <molecule>
O=C(/C=C/c1ccc(O)cc1)NCC(=O)NCCc1c[nH]c2ccccc12

>  <unit_abbrev>
%

>  <assay_result>
9.9

$$$$
>  <molecule>
CC(C)(NC(=O)/C=C/c1ccc(OCc2ccccc2)cc1)C(=O)NCCc1c[nH]c2ccccc12

>  <unit_abbrev>
%

>  <assay_result>
10.2

$$$$
>  <molecule>
C[C@H](NC(=O)/C=C/c1ccc(O)cc1)C(=O)NCCc1c[nH]c2ccccc12

>  <unit_abbrev>
%

>  <assay_result>
17.7

$$$$

# query: inhibition of entry O=C(/C=C/c1ccc(OCc2ccccc2)cc1)NC1(C(=O)NCCc2c[nH]c3ccccc23)CCNCC1
97

# query: inhibition of entry COc1ccc(/C=C/C(=O)NC(C)(C)C(=O)NCCc2c[nH]c3ccccc23)cc1
10.3

# query: inhibition of entry NC(=O)C1CCCc2c1[nH]c1ccc(Cl)cc21 (stereo not given)
98.9

# query: inhibition of entry O=C(/C=C/c1ccc(OCc2ccc(F)cc2)cc1)NC1(C(=O)NCCc2c[nH]c3ccc(F)cc23)CCNCC1
94.1

* * *

Target: NAD-dependent protein deacetylase sirtuin-1 (Homo sapiens)
property: pIC50
Lab note: report pIC50 as minus log10 of the concentration in molar units, number only.

Recall the recorded pIC50 for O=C(/C=C/c1ccc(OCc2ccccc2)cc1)NC1(C(=O)NCCc2c[nH]c3ccccc23)CCNCC1 with NAD-dependent protein deacetylase sirtuin-1 (Homo sapiens) and state it.
4.28

* * *

Biological target: NAD-dependent protein deacetylase sirtuin-2 (Homo sapiens) (UniProt Q8IXJ6)
Sequence (Q8IXJ6 whole entry): as above
Test: Inhibition of SIRT2 at 200 uM
Class assignment keyed on inhibition, ranges 0: < 40%; 1: ≥ 40% and < 80%; 2: ≥ 80%

>  <compound>
CC(C)(NC(=O)/C=C/c1ccc(O)cc1)C(=O)NCCc1c[nH]c2ccc(F)cc12

>  <study_target>
NAD-dependent protein deacetylase sirtuin-2 (Homo sapiens) (UniProt Q8IXJ6)

>  <group_label>
1

$$$$
>  <compound>
CC(C)(NC(=O)/C=C/c1ccc(O)cc1)C(=O)NCCc1c[nH]c2ccccc12

>  <study_target>
NAD-dependent protein deacetylase sirtuin-2 (Homo sapiens) (UniProt Q8IXJ6)

>  <group_label>
2

$$$$
>  <compound>
C[C@H](NC(=O)/C=C/c1ccc(O)cc1)C(=O)NCCc1c[nH]c2ccccc12

>  <study_target>
NAD-dependent protein deacetylase sirtuin-2 (Homo sapiens) (UniProt Q8IXJ6)

>  <group_label>
2

$$$$
>  <compound>
C[C@@H](NC(=O)/C=C/c1ccc(O)cc1)C(=O)NCCc1c[nH]c2ccccc12

>  <study_target>
NAD-dependent protein deacetylase sirtuin-2 (Homo sapiens) (UniProt Q8IXJ6)

>  <group_label>
0

$$$$

Form field 'band' for NC(=O)C1CCCc2c1[nH]c1ccc(Cl)cc21 (centres undefined)
2

The origin of these recorded values is ChEMBL document CHEMBL1144627.
